# PROTOCOL SUMMARY: Uncaging quantum yield determination relative to BODIPY reference
# Assay type: physicochemical
# RUN CONDITIONS: calculated from active agent release; green light irradiation
# Method: The relative photochemical quantum yields of the uncaging reactions together with the degradation quantum yields were determined from the results of the quantitative HPLC-UV experiments. […] The photochemical quantum yields were determined using the following equation: […] The absorption correction factors (a) were determined from the molar absorption coefficients and the green LED emission data obtained by the fluorimeter. […]
QUANTITY NAME: Φu, uncaging quantum yield (%)
One number for each entry, in %.

compound="CC(OC(=O)Cc1ccccc1)c1c2ccc(=[N+]3CCCC3)cc-2oc2cc(N3CCCC3)ccc12.[I-] (stereo not drawn)" recorded_number=1.5

Below is a list of compounds. For each, state its recorded Φu, uncaging quantum yield.
1. CC(OC(=O)N1CCN(c2ccccc2)CC1)C1=C2C=CC(=[N+]3CCCC3)C=C2C(C)(C)c2cc(N3CCCC3)ccc21 (stereo not drawn)
2. CC(OC(=O)Cc1ccccc1)C1=C2C=CC(=[N+]3CCCC3)C=C2C(C)(C)c2cc(N3CCCC3)ccc21.[I-] (stereo not drawn)
3. CC[N+]1=c2cc3c(cc2C(C)CC1(C)C)=C(C(C)OC(=O)Cc1ccccc1)c1cc2c4c(c1C3(C)C)CCCN4CCC2 (stereo not drawn)
4. CC(OC(=O)Oc1ccccc1)C1=C2C=CC(=[N+]3CCCC3)C=C2C(C)(C)c2cc(N3CCCC3)ccc21.[I-] (stereo not drawn)
5. CC(OC(=O)Cc1ccccc1)c1c2ccc(=O)cc-2oc2cc(N3CCCC3)ccc12 (stereo not drawn)

Output:
1. 0.92
2. 1.7
3. 1.6
4. 18
5. 4.7
